System: Caenorhabditis elegans N2
Test Details: mean nematode size ln(EXT) after 48 h, plate-adjusted (DMSO control set to 6) (ln(EXT), control-adjusted); higher = larger nematodes / less growth inhibition
Experimental Parameters: 50 µM; exposure time 48 h
Readout Type: mean nematode size ln(EXT) (ln)

>>> reported_measurement("Cc1ccc(C(C)C)cc1")
6.08
>>> reported_measurement("Cc1ccc(O)cc1")
5.96
>>> reported_measurement("CCOCCOCCOCCO [2-[2-(2-Ethoxyethoxy)ethoxy]ethanol]")
5.91
>>> reported_measurement("Cc1ccc2ncccc2c1")
5.74
>>> reported_measurement("CC1(C)CON(Cc2ccccc2Cl)C1=O")
6.2
>>> reported_measurement("CC(C)=CCC/C(C)=C/CO")
5.99
>>> reported_measurement("O=C(O)C1(c2ccc3c(c2)OC[C@H](Cc2ccc(-c4ccccc4)cc2)[C@H]3O)CCCC1")
5.16
>>> reported_measurement("CCCCCOC(C)=O [Pentyl acetate]")
5.89
>>> reported_measurement("CCCCCCCCOC(=O)CCCCCCCCC(=O)OCCCCCCCC")
5.69
>>> reported_measurement("Cc1cc(NC(=O)C(=O)O)cc(C)c1Oc1ccc(O)c2c1CCC2")
5.84
>>> reported_measurement("C1N2CN3CN1CN(C2)C3")
5.51
>>> reported_measurement("Oc1cc2ccccc2c2ccccc12")
5.41
>>> reported_measurement("O=S(=O)(O)C(F)(F)C(F)(F)C(F)(F)C(F)(F)C(F)(F)C(F)(F)C(F)(F)C(F)(F)F")
4.32
>>> reported_measurement("CCOCCOC(C)=O [2-Ethoxyethyl acetate]")
6.07
>>> reported_measurement("Cc1cnc(C2=NC(=O)C(C)(C(C)C)N2)c(C(=O)O)c1 (stereo unspecified)")
5.45
>>> reported_measurement("CC(C)(C)OOC(C)(C)C [Di-tert-butyl peroxide]")
5.59
>>> reported_measurement("CC(C)(O)c1coc(S(=O)(=O)NC(=O)Nc2c3c(cc4c2CCC4)CCC3)c1")
6.09
>>> reported_measurement("O=C(c1ccccc1)c1ccccc1")
5.79
>>> reported_measurement("CCc1cc(SCc2sc(-c3ccc(C(F)(F)F)cc3)nc2CN2CCN(c3ccc(OC)cc3)CC2)ccc1OCC(=O)O")
4.47
>>> reported_measurement("C=CCOC(Cn1ccnc1)c1ccc(Cl)cc1Cl (stereo unspecified)")
5.83
>>> reported_measurement("Fc1ccccc1[C@@H](F)CO[C@H]1CC[C@H](Nc2[nH]cnc3nncc2-3)CC1")
5.67

----------
Test system: Caenorhabditis elegans N2
Test Details: mean nematode size ln(EXT) after 48 h, plate-adjusted (DMSO control set to 6) (ln(EXT), control-adjusted); higher = larger nematodes / less growth inhibition
Experimental Parameters: 0.5 µM; exposure time 48 h
Readout Type: mean nematode size ln(EXT) (ln)

>>> reported_measurement("O=C1c2c(O)cccc2Cc2cccc(O)c21 [Dithranol]")
5.83
>>> reported_measurement("CC1=C2C[C@H]3[C@@H](CC=C4C[C@@H](O)CC[C@@]43C)[C@@H]2CC[C@]12O[C@@H]1C[C@H](C)CN[C@H]1[C@H]2C [Cyclopamine]")
5.89
>>> reported_measurement("ClC1=C(Cl)C2(Cl)C3C4C=CC(C4)C3C1(Cl)C2(Cl)Cl (stereo not given) [Aldrin]")
5.97
>>> reported_measurement("CSc1nc(NC(C)C)nc(NC(C)C)n1 [Prometryn]")
5.83
>>> reported_measurement("On1ccccc1=S [Sodium (2-pyridylthio)-N-oxide]")
5.88
>>> reported_measurement("CN1CCC[C@H]1c1cccnc1 [Nicotine]")
5.88
>>> reported_measurement("CSc1ccc(Oc2ccc(S(N)(=O)=O)cc2CN(C)C)cc1C")
5.74
>>> reported_measurement("CN(C)c1ccc(Cc2ccc(N(C)C)cc2)cc1 [4,4'-methylenebis(N,N-dimethylaniline)]")
5.92
>>> reported_measurement("c1nc[nH]n1 [1H-1,2,4-Triazole]")
6.09
>>> reported_measurement("C=C(C)[C@H]1Cc2c(ccc3c2O[C@@H]2COc4cc(OC)c(OC)cc4[C@@H]2C3=O)O1 [Rotenone]")
5.16
>>> reported_measurement("C/C=C/c1ccc(OC)cc1 [(E)-Anethole]")
6.06
>>> reported_measurement("CCc1c(C(=O)NN2CCCCC2)nn(-c2ccc(Cl)cc2Cl)c1-c1ccc(Br)cc1 [Surinabant]")
5.77
>>> reported_measurement("CN1CCCC1=O [N-Methyl-2-pyrrolidone]")
5.94
>>> reported_measurement("CCC(C)(C)C(=O)OC1=C(c2ccc(Cl)cc2Cl)C(=O)OC12CCCCC2 [Spirodiclofen]")
5.74
>>> reported_measurement("C=CCCCCCCCCC(=O)O [10-Undecenoic acid]")
5.77
>>> reported_measurement("CC(=O)OC1CC(C)OC(C)O1 (stereo not given) [2,6-Dimethyl-1,3-dioxan-4-ol acetate]")
5.93
>>> reported_measurement("CCOC(=O)COc1cc(-c2nn(C)c(OC(F)F)c2Cl)c(F)cc1Cl [Pyraflufen-ethyl]")
5.75
>>> reported_measurement("CC(O)CO (stereo not given) [Propylene glycol]")
6.09
>>> reported_measurement("O=C1NS(=O)(=O)c2ccccc21.[Na] [Saccharin sodium salt hydrate]")
5.88
>>> reported_measurement("CCC(C)c1ccc(O)cc1 (stereo not given) [4-(Butan-2-yl)phenol]")
6.03
